biological target: 84V90M (Human immunodeficiency virus type 1 group M subtype B, UniProt P04585, I572V/L578M); experiment: cell-based; set-up: species or system HIV-1
pEC50: −log10 of the molar value.

| compound | relation.qualifier | pEC50 |
| --- | --- | --- |
| Nc1n[nH]c2ccc(CN3C(=O)N(CCCCOCP(=O)(O)O)C(Cc4ccccc4)C(O)C(O)C3Cc3ccccc3)cc12 (stereo not shown) | < | 5.37 |
| O=C1N(Cc2ccccc2)[C@H](Cc2ccccc2)[C@H](O)[C@@H](O)[C@@H](Cc2ccccc2)N1Cc1ccc2[nH]ncc2c1 [drawing 863, reference compound] | = | 5.64 |
| CCOP(=O)(COc1ccc(CN2C(=O)N(Cc3ccc4[nH]nc(N)c4c3)C(Cc3ccccc3)C(O)C(O)C2Cc2ccccc2)cc1)OCC (stereo not shown) | < | 5.22 |
| Nc1n[nH]c2ccc(CN3C(=O)N(Cc4cccc(OCP(=O)(OCc5ccccc5)OCc5ccccc5)c4)C(Cc4ccccc4)C(O)C(O)C3Cc3ccccc3)cc12 (stereo not shown) | < | 5.22 |
| CCOP(=O)(COc1ccc(CC2C(O)C(O)C(Cc3ccc(OC)cc3)N(Cc3cccnc3)C(=O)N2Cc2cccnc2)cc1)OCC (stereo not shown) | = | 6.12 |
| CCOP(=O)(COCCCN1C(=O)N(Cc2ccc3[nH]nc(N)c3c2)C(Cc2ccccc2)C(O)C(O)C1Cc1ccccc1)OCC (stereo not shown) | < | 5.22 |
| Nc1cccc(CN2C(=O)N(Cc3cccc(C(=O)O)c3)C(Cc3ccccc3)C(O)C(O)C2Cc2ccccc2)c1 (stereo not shown) | < | 5.22 |
| Nc1n[nH]c2ccc(CN3C(=O)N(Cc4cccc(OCP(=O)(Oc5ccccc5)Oc5ccccc5)c4)C(Cc4ccccc4)C(O)C(O)C3Cc3ccccc3)cc12 (stereo not shown) | < | 5.22 |
| Nc1n[nH]c2ccc(CN3C(=O)N(Cc4cccc(O)c4)C(Cc4ccccc4)C(O)C(O)C3Cc3ccccc3)cc12 (stereo not shown) | = | 6.32 |
| Nc1n[nH]c2ccc(CN3C(=O)N(Cc4cccc(OCP(=O)(O)Oc5ccccc5)c4)C(Cc4ccccc4)C(O)C(O)C3Cc3ccccc3)cc12 (stereo not shown) | < | 5.22 |
| CCOP(=O)(CCCNC(=O)c1cccc(CN2C(=O)N(Cc3ccc4[nH]nc(N)c4c3)C(Cc3ccccc3)C(O)C(O)C2Cc2ccccc2)c1)OCC (stereo not shown) | = | 6.32 |
| Nc1n[nH]c2ccc(CN3C(=O)N(Cc4cccc(OCc5ccccc5)c4)C(Cc4ccccc4)C(O)C(O)C3Cc3ccccc3)cc12 (stereo not shown) | = | 5.62 |
| Nc1n[nH]c2ccc(CN3C(=O)N(Cc4ccc(OCP(=O)(OCc5ccccc5)OCc5ccccc5)cc4)C(Cc4ccccc4)C(O)C(O)C3Cc3ccccc3)cc12 (stereo not shown) | = | 5.30 |

----------
biological target: recombinant HIV-1 protease (Human immunodeficiency virus type 1 group M subtype B, UniProt P04585); experiment: biochemical; type: biochemical; conditions: read-out: Enzymatic assay WT IC50/nM

| compound | IC50 |
| --- | --- |
| CCOP(=O)(CCn1nc(O)c2cc(CN3C(=O)N(Cc4ccccc4)[C@H](Cc4ccccc4)[C@H](O)[C@@H](O)[C@H]3Cc3ccccc3)ccc21)OCC | 109 nM |
| CCOC(=O)C(C)OP(=O)(COc1ccc(C[C@@H]2[C@H](O)[C@@H](O)[C@@H](Cc3ccccc3)N(Cc3ccccc3)C(=O)N2Cc2ccccc2)cc1)Oc1ccccc1 (stereo partly shown) | 6.6 nM |
| COc1ccc(CN2C(=O)N(Cc3ccc(O)cc3)[C@H](Cc3ccccc3)[C@H](O)[C@@H](O)[C@H]2Cc2ccccc2)cc1C#N | 130 nM |
| N#Cc1cc(CN2C(=O)N(Cc3cccc(OCc4ccccc4)c3)[C@H](Cc3ccccc3)[C@H](O)[C@@H](O)[C@H]2Cc2ccccc2)ccc1F | 302 nM |
| CCOC(=O)C(C)NP(=O)(COc1ccc(C[C@@H]2[C@H](O)[C@@H](O)[C@@H](Cc3ccccc3)N(Cc3ccccc3)C(=O)N2Cc2ccccc2)cc1)Oc1ccccc1 (stereo partly shown) | 5 nM |
| O=C1N(Cc2ccccc2)[C@H](Cc2ccccc2)[C@H](O)[C@@H](O)[C@@H](Cc2ccccc2)N1Cc1ccc2[nH]nc(O)c2c1 | 6.6 nM |
| CCOP(=O)(CNC(=O)Oc1ccc(C[C@@H]2[C@H](O)[C@@H](O)[C@@H](Cc3ccc(OC)cc3)N(Cc3cccc(N)c3)C(=O)N2Cc2cccc(N)c2)cc1)OCC | 9.9 nM |

----------
Reported EC50 values are given for each entry in this list.
tested on: wild-type HIV-1 strain IIIB; test: microbe, parasite or virus in culture; assay type: cell-based; conditions: read-out: EC50

| compound | EC50 |
| --- | --- |
| COc1ccc(S(=O)(=O)N(CCN(C)C)CC(O)C(Cc2ccc(O)cc2)NC(=O)OC2COC3OCCC23)cc1 (stereo not shown) | 50 to 500 nM |
| CC(C)CN(C[C@@H](O)[C@H](Cc1ccc(OCP(=O)(O)O)cc1)NC(=O)O[C@H]1CO[C@H]2OCC[C@H]21)S(=O)(=O)c1ccc(O)cc1 [drawing 652 R1=OH R2=OH] | 500 to 5000 nM |
| CCOC(=O)C(C)OP(=O)(CCNc1ccc(CC(NC(=O)OC2COC3OCCC23)C(O)CN(CC(C)C)S(=O)(=O)c2ccc(OC)cc2)cc1)Oc1ccccc1 (single isomer, unassigned) [drawing 707] | < 50 nM |
| CCOC(=O)C(C)OP(=O)(CCNCc1ccc(C[C@H](NC(=O)O[C@H]2CO[C@H]3OCC[C@H]32)[C@H](O)CN(CC(C)C)S(=O)(=O)c2ccc(OC)cc2)cc1)Oc1ccccc1 (stereo partly shown) [drawing 662 R1=Ph R2=Lac-Et] | 50 to 500 nM |
| CCOC(=O)C(C)OP(=O)(Oc1ccccc1)c1ccc(CN(C)CC(NC(=O)OC2COC3OCCC23)C(O)CN(CC(C)C)S(=O)(=O)c2ccc(OC)cc2)cc1 (stereo not shown) | < 50 nM |
| CC(C)CN(CC(O)C(Cc1ccc(OCP(=O)(OCc2ccccc2)OCc2ccccc2)cc1)NC(=O)OC1COC2OCCC12)S(=O)(=O)c1ccc(C=O)cc1 (stereo not shown) | < 50 nM |
| CCOC(=O)COP(=O)(COc1ccc(CC(NC(=O)OC2COC3OCCC23)C(O)CN(CC(C)C)S(=O)(=O)c2ccc(OC)cc2)cc1)Oc1ccccc1 (stereo not shown) [drawing 658 R1=OPh R2=Glc-Et] | < 50 nM |
| CCOC(=O)C(CC)NP(=O)(CCNCc1ccc(C[C@H](NC(=O)O[C@H]2CO[C@H]3OCC[C@H]32)[C@H](O)CN(CC(C)C)S(=O)(=O)c2ccc(OC)cc2)cc1)Oc1ccccc1 (stereo partly shown) [drawing 662 R1=Ph R2=Aba-Et] | 500 to 5000 nM |
| CCOC(=O)[C@H](C)OP(=O)(COc1ccc(C[C@H](NC(=O)O[C@H]2CO[C@H]3OCC[C@H]32)[C@@H](CN(CC(C)C)S(=O)(=O)c2ccc(OC)cc2)OC(=O)[C@H](N)C(C)C)cc1)Oc1ccccc1 (stereo partly shown) | 50 to 500 nM |
| CCCCCCCCc1ccc(OP(=O)(COc2ccc(C[C@H](NC(=O)O[C@H]3CO[C@H]4OCC[C@H]43)[C@H](O)CN(CC(C)C)S(=O)(=O)c3ccc(OC)cc3)cc2)O[C@@H](C)C(=O)OCC)cc1 (stereo partly drawn) [drawing 660 R1=OPh—p-n-Oct R2=(S)Lac-Et] | 50 to 500 nM |

----------
system: wild-type HIV-1 strain IIIB; experiment: microbe, parasite or virus in culture; type: cell-based; conditions: read-out: EC50
pEC50: −log10 of the molar value.
Reported pEC50 values are given for each entry in this list.

| compound | pEC50 |
| --- | --- |
| CCCCOC(=O)C(C)OP(=O)(COc1ccc(C[C@H](NC(=O)O[C@H]2CO[C@H]3OCC[C@H]32)[C@H](O)CN(CC(C)C)S(=O)(=O)c2cccc(N)c2)cc1)Oc1ccccc1 (some centres unmarked) [drawing 764] | 6.30 to 7.30 |
| Cc1ccc(C(=O)N[C@@H](Cc2ccc(OCP(=O)(Oc3ccccc3)Oc3ccccc3)cc2)[C@H](O)CN(CC(C)C)S(=O)(=O)c2ccc(N)cc2)cc1O | 6.30 to 7.30 |
| CCOC(=O)C(CC)NP(=O)(COc1ccc(C[C@H](NC(=O)O[C@H]2CO[C@H]3OCC[C@H]32)[C@H](O)CN(CC(C)C)S(=O)(=O)c2ccc(OC)cc2)cc1)NC(CC)C(=O)OCC (some centres unmarked) [drawing 655 R1=Aba-Et R2=Aba-Et] | > 7.30 |
| CCOP(=O)(COc1ccc(C[C@H](NC(=O)O[C@H]2CO[C@H]3OCC[C@H]32)[C@H](O)CN(CC(C)C)S(=O)(=O)c2ccc(O)cc2)cc1)OCC [drawing 652 R1=Et R2=Et] | > 7.30 |
| Cc1ccc(C(=O)N[C@@H](Cc2ccc(OCP(=O)(OCc3ccccc3)OCc3ccccc3)cc2)[C@H](O)CN(CC(C)C)S(=O)(=O)c2ccc(N)cc2)cc1O | 6.30 to 7.30 |
